Parameter 'readout' = IC50; parameter 'system' = EGFR (UniProt P00533).
Sequence (P00533 whole entry, looked up): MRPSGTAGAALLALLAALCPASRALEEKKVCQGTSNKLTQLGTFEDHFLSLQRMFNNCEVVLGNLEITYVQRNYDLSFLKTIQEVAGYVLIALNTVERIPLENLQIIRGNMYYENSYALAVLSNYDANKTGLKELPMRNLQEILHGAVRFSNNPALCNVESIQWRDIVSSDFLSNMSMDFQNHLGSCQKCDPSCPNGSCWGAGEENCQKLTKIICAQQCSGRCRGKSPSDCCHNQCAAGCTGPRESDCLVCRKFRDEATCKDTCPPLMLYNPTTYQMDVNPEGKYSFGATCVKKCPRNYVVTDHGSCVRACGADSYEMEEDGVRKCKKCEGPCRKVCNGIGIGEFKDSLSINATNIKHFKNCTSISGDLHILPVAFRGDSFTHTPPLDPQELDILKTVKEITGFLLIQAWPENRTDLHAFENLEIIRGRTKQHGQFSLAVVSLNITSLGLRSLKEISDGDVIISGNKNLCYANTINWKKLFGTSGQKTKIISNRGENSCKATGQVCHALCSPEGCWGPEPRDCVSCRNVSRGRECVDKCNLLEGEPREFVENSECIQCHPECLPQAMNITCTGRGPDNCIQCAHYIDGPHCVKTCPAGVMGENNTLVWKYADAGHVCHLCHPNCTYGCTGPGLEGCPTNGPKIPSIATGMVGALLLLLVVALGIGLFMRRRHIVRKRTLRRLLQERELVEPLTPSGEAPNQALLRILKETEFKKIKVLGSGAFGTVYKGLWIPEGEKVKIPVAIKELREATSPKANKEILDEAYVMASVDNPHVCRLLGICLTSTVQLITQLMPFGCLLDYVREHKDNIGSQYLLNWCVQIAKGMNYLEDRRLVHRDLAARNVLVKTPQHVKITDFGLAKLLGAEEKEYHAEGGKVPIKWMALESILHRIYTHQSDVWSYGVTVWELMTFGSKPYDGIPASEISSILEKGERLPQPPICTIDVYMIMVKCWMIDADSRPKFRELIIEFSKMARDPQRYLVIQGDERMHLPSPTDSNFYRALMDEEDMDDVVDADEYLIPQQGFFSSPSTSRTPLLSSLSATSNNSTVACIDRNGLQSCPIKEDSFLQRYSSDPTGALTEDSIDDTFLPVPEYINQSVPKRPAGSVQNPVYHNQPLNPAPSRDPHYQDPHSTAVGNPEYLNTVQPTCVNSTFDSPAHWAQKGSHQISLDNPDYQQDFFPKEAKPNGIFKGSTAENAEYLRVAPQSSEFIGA

Example results:
[[record]]
compound = "COc1cc(Nc2ncnc(-c3cccnc3NCC(C)c3ccccc3)n2)cc(OC)c1OC (stereo not given)"
value = "> 4.5 µg/mL"

[[record]]
compound = "COc1cc(Nc2ncnc(-n3ccc4ccc(F)cc43)n2)cc(OC)c1OC"
value = "> 4.5 µg/mL"

[[record]]
compound = "O=c1[nH]c2ccccc2n1-c1ncnc(Nc2cccc(Cl)c2)n1"
value = "2.4 to 3.5 µg/mL"


Exam item: API: value(readout= IC50, system= EGFR (UniProt P00533), query= COc1ccc(Nc2ncnc(Nc3ccc(F)c(F)c3)n2)cc1OC )
Marked response: 0.4 to 2.4 µg/mL

Exam item: Give recorded IC50 with EGFR (UniProt P00533) for the following compound: COc1cc(Nc2ncnc(-c3cccnc3Nc3ccc(Cl)cc3C)n2)cc(OC)c1OC
Marked response: > 4.5 µg/mL

Exam item: Item CN(c1cccc(Cl)c1)c1ncnc(Cl)n1 with EGFR (UniProt P00533) - IC50?
Marked response: > 4.5 µg/mL

Exam item: State its IC50 on EGFR (UniProt P00533): CCOc1ccc(Nc2ncnc(-n3c(N)nc4ccccc43)n2)cc1OCC
Marked response: 2.4 to 3.5 µg/mL

Exam item: What is its IC50 for EGFR (UniProt P00533)? Entry: CC(C)(C)OC(=O)Nc1ccc(Nc2ncnc(Nc3ccc(OCc4ccccc4)cc3)n2)cc1
Marked response: > 4.5 µg/mL

Exam item: IC50 of COc1cc(Nc2ncnc(-n3c(=O)oc4ccccc43)n2)cc(OC)c1OC on EGFR (UniProt P00533)?
Marked response: 0.4 to 2.4 µg/mL

Exam item: Field: IC50 (EGFR (UniProt P00533)). Entry: Cc1ccc2c(c1)CCCN2c1ncnc(Nc2ccc3c(c2)C(=O)OC3)n1
Marked response: < 0.4 µg/mL

* * *

IC50, EGFR (UniProt P00533), per-entry values.

[[record]]
molecule_smiles = "COc1ccc(Nc2ncnc(-n3cccc3)n2)c(OC)c1"
value = "> 4.5 µg/mL"

[[record]]
molecule_smiles = "COc1cc(Nc2ncnc(NN3CCOCC3)n2)cc(OC)c1OC"
value = "> 4.5 µg/mL"

[[record]]
molecule_smiles = "COc1cc(Nc2ncnc(N[C@@H](CO)c3ccccc3)n2)cc(OC)c1OC"
value = "> 4.5 µg/mL"

[[record]]
molecule_smiles = "O=C(O)CCc1cccc(Nc2ncnc(Nc3cc(-c4ccco4)[nH]n3)n2)c1"
value = "< 0.4 µg/mL"

[[record]]
molecule_smiles = "COc1cc(Nc2ncnc(-n3c(Nc4cccc(C(=O)O)c4)nc4ccccc43)n2)cc(OC)c1OC"
value = "3.5 to 4.5 µg/mL"


Exam item: Query for EGFR (UniProt P00533): what IC50 does the record show for COc1cc(Nc2ncnc(-n3c(Nc4ccccc4C(C)C)nc4ccccc43)n2)cc(OC)c1OC ?
Marked response: > 4.5 µg/mL

Exam item: Test system EGFR (UniProt P00533); read-out IC50; what value for CC(C)(C)OC(=O)Nc1ccc(Nc2ncnc(-c3ccccc3)n2)cc1 ?
Marked response: > 4.5 µg/mL

Exam item: Kindly state the measured IC50 obtained for NC(=O)c1cccc(Nc2ncnc(-c3cccs3)n2)c1 with EGFR (UniProt P00533).
Marked response: > 4.5 µg/mL

Exam item: Missing value: IC50, EGFR (UniProt P00533), entry COCCOc1ccc(Nc2ncnc(Nc3ccc(C)c(F)c3)n2)cc1OCCOC . Fill in?
Marked response: > 4.5 µg/mL

Exam item: Given the entry CN(c1cccc(Cl)c1)c1ncnc(Nc2ncccn2)n1 , what IC50 was observed with EGFR (UniProt P00533)?
Marked response: < 0.4 µg/mL
